# target of assay: thrombin (UniProt P00734;P00734 328-363;364-622)
# method description: SPR
pKd: −log10 of the molar value.
quantity: pKd

1. GGTTGGTGTGGTTGG (structured_DNA, UNA-G at 10) [G10] = 6.65
2. GGTTGGTGTGGTTGG (structured_DNA, UNA-G at 1) [G1] = 7.02
3. GGTTGGTGTGGTTGG (structured_DNA, UNA-G at 2) [G2] = 6.53
4. GGTTGGTGTGGTTGG (structured_DNA, UNA-G at 8) [G8] = 6.04
5. GGTTGGTGTGGTTGG (structured_DNA, UNA-G at 6) [G6] = 6.54
6. GGTTGGTGTGGTTGG (structured_DNA, UNA-G at 5) [G5] = 6.37
7. GGTTGGTGTGGTTGG (structured_DNA, UNA-G at 15) [G15] = 6.81
8. GGTTGGTGTGGTTGG (structured_DNA) [TBA] = 6.99

src = paper PMC3035450
